testedSystem: T1, RavP-N (N-terminal region of the rabies virus phosphoprotein, residues 1-152) (rabies virus, UniProt P22363 1-152)
T1 sequence: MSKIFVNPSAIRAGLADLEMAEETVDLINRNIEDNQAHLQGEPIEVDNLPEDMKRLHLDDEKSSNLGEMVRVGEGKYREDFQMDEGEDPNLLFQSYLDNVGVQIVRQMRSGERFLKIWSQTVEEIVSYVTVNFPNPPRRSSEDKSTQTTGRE
testDescription: ITC
endpointLabel: Kd (nM)
// units = nM; emit number, no label

Sure, the documented Kd for LC8 from Drosophila melanogaster (natural protein, UniProt Q24117 1-89, looked up) MSDRKAVIKNADMSEEMQQDAVDCATQALEKYNIEKDIAAYIKKEFDKKYNPTWHCIVGRNFGSYVTHETRHFIYFYLGQVAILLFKSG is 30
